System: Escherichia coli TOP10
Assay: shrunken log2 fold change of peptide-encoding DNA abundance (4.5 h post-induction vs induction); higher = less antimicrobial activity (less host growth inhibition)
Settings: time post-induction: 4.5 h; library: site-saturation at positions 5, 18, 19, 20
ENDPOINT: shrunken log2 fold change
Numbers only.

Known shrunken log2 fold change results, listed for orientation:
RRIRHRPPRLPRPRPRPYLNPRP : -1.2
RRIRCRPPRLPRPRPRPPHWPRP : 0.531

Please report shrunken log2 fold change for every entry that follows.
1. RRIRIRPPRLPRPRPRPDLTPRP
2. RRIRTRPPRLPRPRPRPGCCPRP
3. RRIRSRPPRLPRPRPRPLYDPRP

1. -0.00701
2. 0.334
3. -0.113

// batch mode: one shrunken log2 fold change value per listed entry
1. RRIRHRPPRLPRPRPRPMLSPRP
2. RRIRKRPPRLPRPRPRPMFVPRP
3. RRIRGRPPRLPRPRPRPWMRPRP
4. RRIRWRPPRLPRPRPRPDVAPRP
5. RRIRARPPRLPRPRPRPGCNPRP

-0.0786
0.426
0.444
1.3
0.252

Batch: shrunken log2 fold change for all items listed.
1. RRIRGRPPRLPRPRPRPACNPRP
2. RRIRGRPPRLPRPRPRPNHWPRP
3. RRIRERPPRLPRPRPRPDFIPRP

1: 0.415; 2: 0.309; 3: -0.092

Could you tell me shrunken log2 fold change for each of these sequences? They are listed below.
1. RRIRRRPPRLPRPRPRPFVVPRP
2. RRIRHRPPRLPRPRPRPQCMPRP
3. RRIRDRPPRLPRPRPRPPPIPRP

0.0981
-0.123
0.45

I would be grateful if you could provide shrunken log2 fold change for each of the following entries.
1. RRIRHRPPRLPRPRPRPMWVPRP
2. RRIRARPPRLPRPRPRPPSIPRP
3. RRIRWRPPRLPRPRPRPPLEPRP
4. RRIRCRPPRLPRPRPRPSATPRP
5. RRIRRRPPRLPRPRPRPYLRPRP
6. RRIRPRPPRLPRPRPRPDQRPRP

-0.015
-0.108
0.474
0.593
0.0234
0.015

Hey, can you go through the list below and give me shrunken log2 fold change for every item?
1. RRIRGRPPRLPRPRPRPNMPPRP
2. RRIRTRPPRLPRPRPRPAQNPRP

1. -0.317
2. 0.323

Each sequence below has a recorded value; state its shrunken log2 fold change.
1. RRIRPRPPRLPRPRPRPIGIPRP
2. RRIRDRPPRLPRPRPRPGFAPRP
3. RRIRIRPPRLPRPRPRPNSAPRP
4. RRIRTRPPRLPRPRPRPPPGPRP

[0.208, 0.992, -0.234, 0.668]

Record shrunken log2 fold change for all entries; do not skip any.
1. RRIRERPPRLPRPRPRPNKIPRP
2. RRIRNRPPRLPRPRPRPKREPRP
3. RRIRIRPPRLPRPRPRPCLRPRP
4. RRIRGRPPRLPRPRPRPVTKPRP
5. RRIRCRPPRLPRPRPRPYPVPRP
6. RRIRQRPPRLPRPRPRPHVIPRP
7. RRIRVRPPRLPRPRPRPWCTPRP

1. -0.642
2. 0.0191
3. -1.04
4. 0.661
5. -0.441
6. -0.186
7. 0.0234

---

System: Escherichia coli TOP10
Test: shrunken log2 fold change of peptide-encoding DNA abundance (4.5 h post-induction vs induction); higher = less antimicrobial activity (less host growth inhibition)
Details: time post-induction: 4.5 h; library: site-saturation at positions 5, 18, 19, 20
ENDPOINT: shrunken log2 fold change
Numbers only.

Recorded shrunken log2 fold change, per entry:
RRIRTRPPRLPRPRPRPGWIPRP : -0.154
RRIRHRPPRLPRPRPRPDKCPRP : -0.0295
RRIRTRPPRLPRPRPRPMNTPRP : -0.609
RRIRLRPPRLPRPRPRPNRFPRP : -0.404
RRIRARPPRLPRPRPRPYSGPRP : -0.0581
RRIRHRPPRLPRPRPRPHFAPRP : -0.101

Quick batch: shrunken log2 fold change for everything below.
1. RRIRNRPPRLPRPRPRPCYEPRP
2. RRIRTRPPRLPRPRPRPTMEPRP

[-0.0244, -0.489]

---

Tested on: Escherichia coli TOP10
Experiment: shrunken log2 fold change of peptide-encoding DNA abundance (4.5 h post-induction vs induction); higher = less antimicrobial activity (less host growth inhibition)
Conditions: time post-induction: 4.5 h; library: site-saturation at positions 5, 18, 19, 20
ENDPOINT: shrunken log2 fold change
Numbers only.

Solved cases (2 shown):
RRIRWRPPRLPRPRPRPNSWPRP : -0.0727
RRIRYRPPRLPRPRPRPIYLPRP : -0.0172

Dear reader, for each entry below, please note its shrunken log2 fold change.
1. RRIRGRPPRLPRPRPRPDMFPRP
2. RRIRSRPPRLPRPRPRPEKKPRP
3. RRIRNRPPRLPRPRPRPPMMPRP
4. RRIRARPPRLPRPRPRPEYYPRP
5. RRIRIRPPRLPRPRPRPPHIPRP
6. RRIRLRPPRLPRPRPRPWPYPRP
7. RRIRQRPPRLPRPRPRPEWNPRP
8. RRIRGRPPRLPRPRPRPEPKPRP

[1.92, 0.0751, 0.0507, -0.059, -0.542, -0.127, -0.175, 0.45]

---

Answer each item with its documented shrunken log2 fold change.
Test system: Escherichia coli TOP10
Assay: shrunken log2 fold change of peptide-encoding DNA abundance (4.5 h post-induction vs induction); higher = less antimicrobial activity (less host growth inhibition)
Conditions: time post-induction: 4.5 h; library: site-saturation at positions 5, 18, 19, 20

RRIRARPPRLPRPRPRPTSDPRP : 0.954
RRIRYRPPRLPRPRPRPNCMPRP : -0.974
RRIRSRPPRLPRPRPRPDDWPRP : 0.155
RRIRVRPPRLPRPRPRPWYEPRP : -0.337
RRIRCRPPRLPRPRPRPSYCPRP : -0.342
RRIRQRPPRLPRPRPRPVVEPRP : 0.0249
RRIRRRPPRLPRPRPRPCFNPRP : -0.271

Field: next sequence
Provide measured shrunken log2 fold change value, entry: RRIRQRPPRLPRPRPRPYGHPRP -0.473

---

Please go through the items and note down their shrunken log2 fold change.
System: Escherichia coli TOP10
Test: shrunken log2 fold change of peptide-encoding DNA abundance (4.5 h post-induction vs induction); higher = less antimicrobial activity (less host growth inhibition)
Conditions: time post-induction: 4.5 h; library: site-saturation at positions 5, 18, 19, 20
Answers are plain numbers.

Example entries begin here.
RRIRGRPPRLPRPRPRPKSNPRP : 0.446
RRIRKRPPRLPRPRPRPLHTPRP : -0.368
RRIRMRPPRLPRPRPRPDYSPRP : -0.0167
RRIRPRPPRLPRPRPRPRNFPRP : 0.192
RRIRWRPPRLPRPRPRPGSQPRP : 0.584
RRIRVRPPRLPRPRPRPLCSPRP : -0.0335

Batch lookup, shrunken log2 fold change per entry.
1. RRIRSRPPRLPRPRPRPPKHPRP
2. RRIRTRPPRLPRPRPRPCREPRP

1: 0.2; 2: 0.0664

Could I get shrunken log2 fold change for every one of these entries?
1. RRIRTRPPRLPRPRPRPQYCPRP
2. RRIRGRPPRLPRPRPRPKLRPRP
3. RRIRNRPPRLPRPRPRPAPHPRP
4. RRIRNRPPRLPRPRPRPKTSPRP

[-0.0968, 0.675, 0.227, -0.0653]

Hi! Can you tell me shrunken log2 fold change for each of these sequences?
1. RRIRCRPPRLPRPRPRPCMRPRP
2. RRIRLRPPRLPRPRPRPCTLPRP
3. RRIRRRPPRLPRPRPRPRQWPRP

0.0312
-0.328
0.169

---

Tested on: Escherichia coli TOP10;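 also: peptides expressed intracellularly from a pBAD plasmid library in pooled LB shake-flask culture, induced with 0.3% L-arabinose, DNA abundance read by NGS, three biological replicates, DESeq2 with apeglm shrinkage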
Test: shrunken log2 fold change of peptide-encoding DNA abundance (4.5 h post-induction vs induction); higher = less antimicrobial activity (less host growth inhibition)
Settings: time post-induction: 4.5 h; library: site-saturation at positions 5, 18, 19, 20
ENDPOINT: shrunken log2 fold change

# return shrunken log2 fold change for each item in the list
1. RRIRIRPPRLPRPRPRPSQFPRP
2. RRIRTRPPRLPRPRPRPPRGPRP
3. RRIRMRPPRLPRPRPRPFPYPRP
4. RRIRKRPPRLPRPRPRPGSVPRP
5. RRIRSRPPRLPRPRPRPVSVPRP
6. RRIRRRPPRLPRPRPRPPFVPRP
7. RRIRKRPPRLPRPRPRPMQPPRP
8. RRIRIRPPRLPRPRPRPLVWPRP

1. -0.604
2. 0.607
3. -0.23
4. 0.162
5. 0.0162
6. 0.675
7. 0.288
8. 0.0428
